Hi there, I'd appreciate the recorded IC50 for every entry that follows.
biological target: sodium iodide symporter (NIS), iodide uptake in FRTL5 cells (Rattus norvegicus, UniProt Q63008); construct: endogenous in cells; host or cells: FRTL5 (rat thyroid-derived cells); assay: Inhibition of iodide uptake in FRTL5 cells, non radioactive arsenic/cerium assay; type: cell-based; details: Table 3, variations at R2; averaged from three or four independent experiments; NaI 10 μM, 1 hour, 20°C; read-out: IC50 (μM), inhibitory activity against iodide uptake in FRTL5 cells
Sequence (Q63008 whole entry): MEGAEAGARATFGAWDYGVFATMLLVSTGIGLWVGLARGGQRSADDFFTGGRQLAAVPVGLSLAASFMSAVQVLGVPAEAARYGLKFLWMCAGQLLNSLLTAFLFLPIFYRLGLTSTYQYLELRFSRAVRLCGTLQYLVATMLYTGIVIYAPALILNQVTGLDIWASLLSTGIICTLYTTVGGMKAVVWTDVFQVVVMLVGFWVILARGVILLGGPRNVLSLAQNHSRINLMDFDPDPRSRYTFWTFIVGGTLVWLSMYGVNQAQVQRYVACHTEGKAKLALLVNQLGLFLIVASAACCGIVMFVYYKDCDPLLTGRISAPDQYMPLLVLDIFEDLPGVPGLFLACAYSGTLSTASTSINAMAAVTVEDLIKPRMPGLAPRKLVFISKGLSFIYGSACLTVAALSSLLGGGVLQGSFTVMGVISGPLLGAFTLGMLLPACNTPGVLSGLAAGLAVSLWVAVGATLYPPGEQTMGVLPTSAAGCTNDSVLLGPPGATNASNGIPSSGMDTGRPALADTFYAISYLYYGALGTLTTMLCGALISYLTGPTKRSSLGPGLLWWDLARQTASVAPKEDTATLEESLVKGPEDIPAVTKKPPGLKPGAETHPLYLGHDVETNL
Answers are plain numbers, in µM.

Each molecule below has a recorded value; state its IC50.
1. COc1ccc(COC(=O)C2=C(C3CCCCC3)NC(=O)NC2c2ccccc2)cc1 (stereo not shown) [Compound 43]
2. COc1ccc(COC(=O)C2=C(CNC(=O)c3ccccc3)NC(=O)NC2c2ccccc2)cc1 (stereo not shown) [Compound 47]

1: 0.85; 2: 1.2

Provide IC50 for all items below, preserving their order.
1. CCCCCC1=C(C(=O)OCc2ccc(OC)cc2)C(c2ccccc2)NC(=O)N1 (stereo not shown) [Compound 42]
2. COc1ccc(COC(=O)C2=C(Cc3cccs3)NC(=O)NC2c2ccccc2)cc1 (stereo not shown) [Compound 49]
3. COc1ccc(COC(=O)C2=C(c3cccs3)NC(=O)NC2c2ccccc2)cc1 (stereo not shown) [Compound 48]
4. COc1ccc(COC(=O)C2=C(COc3ccccc3)NC(=O)NC2c2ccccc2)cc1 (stereo not shown) [Compound 46]
5. CCC1=C(C(=O)OCc2ccc(OC)cc2)C(c2ccccc2)NC(=O)N1 (stereo not shown) [Compound 40]
6. COc1ccc(COC(=O)C2=C(Cc3ccccc3)NC(=O)NC2c2ccccc2)cc1 (stereo not shown) [Compound 45]
7. COc1ccc(COC(=O)C2=C(CC(C)C)NC(=O)NC2c2ccccc2)cc1 (stereo not shown) [Compound 41]
8. COc1ccc(COC(=O)C2=C(c3ccccc3)NC(=O)NC2c2ccccc2)cc1 (stereo not shown) [Compound 44]

[0.35, 0.15, 0.55, 0.5, 0.07, 0.25, 0.55, 0.95]

---

test readout: melting point

Some entries whose results are on file:
{"columns": ["molecule", "melting point"],
 "data": [
  ["COc1ccc(COC(=O)C2=C(C)NC(=O)NC2c2ccccc2F)cc1 (centres unmarked) [Compound 23]", "181 to 183 °C"],
  ["COc1ccc(COC(=O)C2=C(C)NC(=O)NC2c2ccc(F)cc2)cc1 (centres unmarked) [Compound 25]", "172 to 175 °C"],
  ["COc1ccc(COC(=O)C2=C(C)NC(=O)NC2c2ccc(C)o2)cc1 (centres unmarked) [Compound 29]", "157 to 159 °C"]
]}

Answer for every listed entry: what is its melting point? The entries follow.
1. CCC1=C(C(=O)OCc2ccc(OC)cc2)C(c2ccccc2)NC(=O)N1 (centres unmarked) [Compound 40]
2. COc1ccc(COC(=O)C2=C(C)NC(=S)NC2c2ccccc2)cc1 (centres unmarked) [Compound 52]
3. COc1ccc(COC(=O)C2=C(CNC(=O)c3ccccc3)NC(=O)NC2c2ccccc2)cc1 (centres unmarked) [Compound 47]
4. COc1cccc(COC(=O)C2=C(C)N(C)C(=O)NC2c2ccco2)c1 (centres unmarked) [Compound 56]
5. COc1ccc(COC(=O)C2=C(C)NC(=O)NC2c2ccoc2)cc1 (centres unmarked) [Compound 28]

1: 62 to 65 °C; 2: 174 to 175 °C; 3: 213 to 216 °C; 4: 155 to 156 °C; 5: 157 to 159 °C
